Where these numbers come from: paper PMC3765824

# experimental-protocol: Colistin plasma concentrations at steady state (HPLC)
# Assay type: in vivo, patients
# condition-label: human, intravenous, second value of pair, taken as patients with acute renal failure at baseline, read-out: Peak colistin plasma level
Bridge positions count the residues as written; N and C are the ends. Square brackets hold non-standard residues; d marks the D form. Peptide text beside a SMILES is read from it. * marks the point of attachment. X1 = CC[C@H](C)CCCCC(=O)*; Dab = NCC[C@H](N)C(=O)O
readout-name: Cmax (ng/mL)
Give the value, in units of ng/mL, as a plain number.

stdin: Suppose we examine the compound CC[C@H](C)CCCCC(=O)N[C@@H](CCN)C(=O)N[C@H](C(=O)N[C@@H](CCN)C(=O)N[C@H]1CCNC(=O)[C@H]([C@@H](C)O)NC(=O)[C@H](CCN)NC(=O)[C@H](CCN)NC(=O)[C@H](CC(C)C)NC(=O)[C@@H](CC(C)C)NC(=O)[C@H](CCN)NC1=O)[C@@H](C)O [colistin] (X1-[Dab]T[Dab][Dab][Dab][dL]L[Dab][Dab]T; lactam 4-C) ; what Cmax value has been reported?
stdout: 1820

* * *

# experimental-protocol: Colistin plasma concentrations at steady state (HPLC)
# Assay type: in vivo, patients
# condition-label: human, intravenous, 3 million IU/8 h, CMS 3 million IU/8 h (n = 16), steady state, 30 min after infusion, median (interquartile range), read-out: Cmax
Bridge positions count the residues as written; N and C are the ends. Square brackets hold non-standard residues; d marks the D form. Peptide text beside a SMILES is read from it. * marks the point of attachment. X1 = CC[C@H](C)CCCCC(=O)*; Dab = NCC[C@H](N)C(=O)O
readout-name: Cmax (ng/mL)
Give the value, in units of ng/mL, as a plain number.

stdin: Suppose we examine the compound CC[C@H](C)CCCCC(=O)N[C@@H](CCN)C(=O)N[C@H](C(=O)N[C@@H](CCN)C(=O)N[C@H]1CCNC(=O)[C@H]([C@@H](C)O)NC(=O)[C@H](CCN)NC(=O)[C@H](CCN)NC(=O)[C@H](CC(C)C)NC(=O)[C@@H](CC(C)C)NC(=O)[C@H](CCN)NC1=O)[C@@H](C)O [colistin] (X1-[Dab]T[Dab][Dab][Dab][dL]L[Dab][Dab]T; lactam 4-C) ; what Cmax value has been reported?
stdout: 1840

* * *

# experimental-protocol: Colistin plasma concentrations at steady state (HPLC)
# Type: in vivo, patients
# condition-label: human, intravenous, first value of pair, taken as patients without acute renal failure at baseline, read-out: Peak colistin plasma level
Bridge positions count the residues as written; N and C are the ends. Square brackets hold non-standard residues; d marks the D form. Peptide text beside a SMILES is read from it. * marks the point of attachment. X1 = CC[C@H](C)CCCCC(=O)*; Dab = NCC[C@H](N)C(=O)O
readout-name: Cmax (ng/mL)
Give the value, in units of ng/mL, as a plain number.

stdin: Suppose we examine the compound CC[C@H](C)CCCCC(=O)N[C@@H](CCN)C(=O)N[C@H](C(=O)N[C@@H](CCN)C(=O)N[C@H]1CCNC(=O)[C@H]([C@@H](C)O)NC(=O)[C@H](CCN)NC(=O)[C@H](CCN)NC(=O)[C@H](CC(C)C)NC(=O)[C@@H](CC(C)C)NC(=O)[C@H](CCN)NC1=O)[C@@H](C)O [colistin] (X1-[Dab]T[Dab][Dab][Dab][dL]L[Dab][Dab]T; lactam 4-C) ; what Cmax value has been reported?
stdout: 1000
